Compiled notes: published pKi values involving Carbonic anhydrase 2 (Homo sapiens, UniProt P00918).
// field semantics: pKi = negative decimal log of concentration (mol/L)

# count of solved cases: 5
1. CC(C)n1c2ccc(F)cc2c2nnc(SCc3cn(-c4ccc(S(N)(=O)=O)cc4)nn3)nc21 | 8.11
2. NS(=O)(=O)c1ccc(N2N=C(c3ccc(Cl)cc3)CC2c2ccccc2)cc1 (centres unmarked) | 6.28
3. NS(=O)(=O)c1ccccc1Nc1ccnc2ccc(Cl)cc12 | 7.06
4. COc1cc(OC)c(C2=NN(c3ccc(S(N)(=O)=O)cc3)C(c3ccc4c(c3)OCO4)C2)cc1OC (centres unmarked) | 5.03
5. NS(=O)(=O)c1ccc2c(c1)CCN2C(=O)c1cccc(F)c1 | 8.25

Attention now turns to another entry.
Look up pKi for this molecule: NS(=O)(=O)c1ccc(C(=O)Nc2nc(CC(=O)N3CC(=O)N4CCc5ccccc5C4C3)cs2)cc1 (centres unmarked) 8.07
